- Organism: Homo sapiens
- Procedure details: Selectivity ratio of IC50 for 17beta-HSD1 in human placental cytosolic fraction to IC50 for 17beta-HSD2 in human placental microsomal fraction
Rule: measured Ratio IC50 below 200 gets 1; anything equal to or greater than 200 gets 0.

Is Ratio IC50 of "Cc1cccc(Oc2ccc(C(=O)N(C)c3cccc(C)c3)cc2)c1" strictly below 200? 1

Moving on to the next molecule: "COc1ccc(Oc2ccc(C(=O)N(C)c3cccc(OC)c3)cc2)cc1" 1

What about "COc1cccc(N(C)C(=O)c2ccc(-c3ccc(C)c(C)c3)cc2)c1" ? 1

Also, COc1cccc(N(C)C(=O)C2CCC(c3ccc(Cl)cc3)CC2)c1 (stereo not given) please. 0

Another: "Cc1ccc(Oc2ccc(C(=O)N(C)c3cccc(C)c3)cc2)cc1" 1

Value source: ChEMBL document CHEMBL3739412
